Below, each of the substances is paired with its reported target mRNA knockdown value.
# conditions: siRNA; further: test system not given here
HELM strings list units from the 5' end as sugar, base in round brackets, then linkage (d deoxyribose, r ribose, m 2'-O-methyl, p phosphodiester). Strings are as the collection lists them, not checked against the first reports. ss, as = sense and antisense strand; [lna] = locked nucleic acid (LNA); [una] = unlocked nucleic acid; [fl2r] = 2'-fluoro
# number only, unit % dropped from output

Below, each entry is followed by its recorded target mRNA knockdown result.
substance=RNA1{m(G)p.r(G)p.m(C)p.r(C)p.m(U)p.r(U)p.m(U)p.r(C)p.m(U)p.r(C)p.m(U)p.r(C)p.m(U)p.r(A)p.m(G)p.r(A)p.m(U)p.r(A)p.m(U)p.r(T)p.r(T)}|RNA2{r(A)p.r(U)p.r(A)p.r(U)p.r(C)p.r(U)p.r(A)p.r(G)p.r(A)p.r(G)p.r(A)p.r(G)p.r(A)p.r(A)p.r(A)p.m(G)p.r(G)p.r(C)p.r(C)p.r(T)p.r(T)}$$$RNA1{StrandType:ss}|RNA2{StrandType:as}$ measurement_type="target mRNA knockdown" observed_value=80
substance=RNA1{r(G)p.r(G)p.r(A)p.r(G)p.m(C)p.r(A)p.r(C)p.r(G)p.r(C)p.r(U)p.m(U)p.r(A)p.r(C)p.m(U)p.r(A)p.r(C)p.r(C)p.r(U)p.r(U)p.r(T)p.r(T)}|RNA2{r(A)p.r(A)p.r(G)p.r(G)p.m(U)p.r(A)p.r(G)p.m(U)p.r(A)p.r(A)p.r(G)p.r(C)p.r(G)p.m(U)p.r(G)p.r(C)p.r(U)p.r(C)p.r(C)p.r(T)p.r(T)}$$$RNA1{StrandType:ss}|RNA2{StrandType:as}$ measurement_type="target mRNA knockdown" observed_value=68
substance=RNA1{r(C)p.r(C)p.r(G)p.r(A)p.r(A)p.r(G)p.r(A)p.r(C)p.r(G)p.m(A)p.m(A)p.r(G)p.r(C)p.m(U)p.r(A)p.m(U)p.r(G)p.r(A)p.r(A)p.r(T)p.r(T)}|RNA2{r(U)p.r(U)p.m(C)p.r(A)p.m(U)p.r(A)p.r(G)p.r(C)p.r(U)p.r(U)p.r(C)p.r(G)p.r(U)p.r(C)p.r(U)p.r(U)p.r(C)p.r(G)p.r(G)p.r(T)p.r(T)}$$$RNA1{StrandType:ss}|RNA2{StrandType:as}$ measurement_type="target mRNA knockdown" observed_value=69
substance=RNA1{r(A)p.r(G)p.r(A)p.r(A)p.r(A)p.r(C)p.r(G)p.m(C)p.r(A)p.r(G)p.m(U)p.r(A)p.r(A)p.r(U)p.r(C)p.r(C)p.r(G)p.r(G)p.r(A)p.r(T)p.r(T)}|RNA2{r(U)p.r(C)p.r(C)p.r(G)p.r(G)p.r(A)p.r(U)p.m(U)p.r(A)p.r(C)p.m(U)p.r(G)p.r(C)p.r(G)p.r(U)p.r(U)p.r(U)p.r(C)p.r(U)p.r(T)p.r(T)}$$$RNA1{StrandType:ss}|RNA2{StrandType:as}$ measurement_type="target mRNA knockdown" observed_value=81

In one line, give reported target mRNA knockdown of the entry `RNA1{[lna](G)p.r(G)p.r(A)p.r(U)p.r(G)p.r(A)p.r(G)p.r(G)p.r(A)p.r(A)p.r(G)p.r(G)p.r(C)p.r(A)p.r(A)p.r(U)p.r(U)p.r(U)p.r(A)p.[lna](T)p.[lna](T)}|RNA2{r(U)p.r(A)p.r(A)p.r(A)p.r(U)p.r(U)p.r(G)p.r(C)p.r(C)p.r(U)p.r(U)p.r(C)p.r(C)p.r(U)p.r(C)p.r(A)p.r(U)p.r(C)p.r(C)p.[lna](T)p.[lna](T)}$$$RNA1{StrandType:ss}|RNA2{StrandType:as}$` .
50

In one line, give reported target mRNA knockdown of the entry `RNA1{r(C)p.r(U)p.r(U)p.r(A)p.r(C)p.r(G)p.r(C)p.r(U)p.r(G)p.r(A)p.r(G)p.r(U)p.r(A)p.r(C)p.r(U)p.r(U)p.r(C)p.r(G)p.r(A)p.r(T)p.r(T)}|RNA2{[lna](T)p.r(C)p.r(G)p.r(A)p.r(A)p.r(G)p.r(U)p.r(A)p.r(C)p.r(U)p.r(C)p.r(A)p.r(G)p.r(C)p.r(G)p.r(U)p.r(A)p.r(A)p.r(G)p.[lna](T)p.[lna](T)}$$$RNA1{StrandType:ss}|RNA2{StrandType:as}$` .
57

In one line, give reported target mRNA knockdown of the entry `RNA1{[una](U)p.r(G)p.r(A)p.r(A)p.r(U)p.r(C)p.r(A)p.r(G)p.r(A)p.r(A)p.r(G)p.r(A)p.r(U)p.r(G)p.r(A)p.r(A)p.r(G)p.r(U)p.r(C)p.r(A)p.r(A)}|RNA2{[una](G)p.r(A)p.r(C)p.r(U)p.r(U)p.r(C)p.r(A)p.r(U)p.r(C)p.r(U)p.r(U)p.r(C)p.r(U)p.r(G)p.r(A)p.r(U)p.r(U)p.r(C)p.r(A)p.r(A)p.r(G)}$$$RNA1{StrandType:ss}|RNA2{StrandType:as}$` .
0

In one line, give reported target mRNA knockdown of the entry `RNA1{r(A)p.r(U)p.m(C)p.r(A)p.r(G)p.r(A)p.r(G)p.r(G)p.r(G)p.r(A)p.r(G)p.r(G)p.r(U)p.r(C)p.r(U)p.m(U)p.r(A)p.r(G)p.r(A)p.r(T)p.r(T)}|RNA2{r(U)p.r(C)p.m(U)p.r(A)p.r(A)p.r(G)p.r(A)p.r(C)p.r(C)p.r(U)p.r(C)p.r(C)p.r(C)p.r(U)p.r(C)p.m(U)p.r(G)p.r(A)p.r(U)p.r(T)p.r(T)}$$$RNA1{StrandType:ss}|RNA2{StrandType:as}$` .
68

In one line, give reported target mRNA knockdown of the entry `RNA1{[fl2r](A)p.r(A)p.[fl2r](C)p.r(U)p.[fl2r](C)p.r(U)p.[fl2r](A)p.r(C)p.[fl2r](U)p.r(G)p.[fl2r](U)p.r(G)p.[fl2r](G)p.r(A)p.[fl2r](G)p.r(U)p.[fl2r](C)p.r(G)p.[fl2r](G)p.r(T)p.r(T)}|RNA2{r(C)p.r(C)p.[fl2r](G)p.r(A)p.r(C)p.r(U)p.r(C)p.r(C)p.r(A)p.r(C)p.r(A)p.[fl2r](G)p.r(U)p.r(A)p.[fl2r](G)p.r(A)p.[fl2r](G)p.r(U)p.r(U)p.r(T)p.r(T)}$$$RNA1{StrandType:ss}|RNA2{StrandType:as}$` .
25

====

# conditions: siRNA
HELM strings list units from the 5' end as sugar, base in round brackets, then linkage (d deoxyribose, r ribose, m 2'-O-methyl, p phosphodiester). Strings are as the collection lists them, not checked against the first reports. ss, as = sense and antisense strand; [lna] = locked nucleic acid (LNA)
Below, each of the substances is paired with its reported target mRNA knockdown value.
# number only, unit % dropped from output

Below, each entry is followed by its recorded target mRNA knockdown result.
substance=RNA1{[lna](T)p.r(G)p.[lna](A)p.r(G)p.[lna](A)p.r(G)p.r(A)p.r(A)p.[lna](A)p.r(G)p.r(C)p.[lna](A)p.r(C)p.[lna](A)p.r(G)p.r(A)p.[lna](A)p.r(A)p.r(A)p.[lna](T)p.[lna](T)}|RNA2{r(U)p.r(U)p.r(U)p.r(U)p.r(C)p.r(U)p.r(G)p.r(U)p.r(G)p.r(C)p.r(U)p.r(U)p.r(U)p.r(C)p.r(U)p.r(C)p.r(U)p.r(C)p.r(A)p.r(T)p.r(T)}$$$RNA1{StrandType:ss}|RNA2{StrandType:as}$ observed_value=68
substance=RNA1{m(G)p.m(G)p.m(A)p.r(C)p.r(U)p.m(A)p.r(C)p.r(U)p.m(A)p.m(A)p.r(C)p.r(C)p.r(U)p.r(C)p.r(C)p.m(A)p.m(G)p.r(U)p.r(U)p.r(T)p.r(T)}|RNA2{r(A)p.r(A)p.r(C)p.r(U)p.r(G)p.r(G)p.r(A)p.r(G)p.r(G)p.r(U)p.r(U)p.r(A)p.r(G)p.r(U)p.r(A)p.r(G)p.r(U)p.r(C)p.r(C)p.r(T)p.r(T)}$$$RNA1{StrandType:ss}|RNA2{StrandType:as}$ observed_value=65

Attention now shifts to the item below.
In one line, give reported target mRNA knockdown of the entry `RNA1{r(G)p.r(A)p.r(A)p.r(A)p.r(C)p.m(U)p.m(G)p.r(G)p.m(U)p.r(A)p.r(C)p.r(U)p.r(U)p.r(U)p.r(C)p.r(C)p.r(C)p.r(C)p.r(C)p.r(T)p.r(T)}|RNA2{r(G)p.r(G)p.r(G)p.r(G)p.r(G)p.r(A)p.r(A)p.r(A)p.r(G)p.m(U)p.r(A)p.r(C)p.r(C)p.r(A)p.r(G)p.r(U)p.r(U)p.r(U)p.r(C)p.r(T)p.r(T)}$$$RNA1{StrandType:ss}|RNA2{StrandType:as}$` .
88

Hello, the source for this data is the OligoGym collection, in case you need it.
